biological target: Human Polθ polymerase domain (aa1820-2590) (Homo sapiens); construct: Human Polθ polymerase domain (aa1820-2590) was expressed in E. coli; made in house; host or cells: E. coli; experiment: Polθ Polymerase Domain Kinact/KI Assay (PicoGreen); format: biochemical; conditions: 0.8 nM Polθ, 100 nM DNA substrate, kobs vs [I] fit for 2-step covalent inhibitor
Sequence (O75417 1820-2590): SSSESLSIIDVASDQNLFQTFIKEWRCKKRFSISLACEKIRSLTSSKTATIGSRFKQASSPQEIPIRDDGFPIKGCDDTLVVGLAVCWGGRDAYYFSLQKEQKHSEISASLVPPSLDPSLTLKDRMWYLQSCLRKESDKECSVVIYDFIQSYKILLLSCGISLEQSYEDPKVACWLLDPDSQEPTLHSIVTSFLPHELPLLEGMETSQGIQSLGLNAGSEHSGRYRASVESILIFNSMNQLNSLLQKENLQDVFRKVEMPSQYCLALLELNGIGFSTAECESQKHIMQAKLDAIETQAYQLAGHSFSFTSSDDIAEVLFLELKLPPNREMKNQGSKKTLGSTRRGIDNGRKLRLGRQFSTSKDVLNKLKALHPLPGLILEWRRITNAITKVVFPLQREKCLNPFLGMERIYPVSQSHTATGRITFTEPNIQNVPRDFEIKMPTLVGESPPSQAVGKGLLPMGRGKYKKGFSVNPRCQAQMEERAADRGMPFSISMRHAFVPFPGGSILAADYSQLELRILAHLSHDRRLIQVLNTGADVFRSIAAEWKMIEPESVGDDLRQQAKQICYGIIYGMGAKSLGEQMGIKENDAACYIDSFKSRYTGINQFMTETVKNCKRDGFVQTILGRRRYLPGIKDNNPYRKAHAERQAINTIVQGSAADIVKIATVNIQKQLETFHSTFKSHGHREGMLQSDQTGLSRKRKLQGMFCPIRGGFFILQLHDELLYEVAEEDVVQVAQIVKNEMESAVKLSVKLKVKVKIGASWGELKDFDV
attribute_measured: Kinact/Kl (M⁻¹ s⁻¹)

| compound | Kinact/Kl (M⁻¹ s⁻¹) |
| --- | --- |
| C=CC(=O)N1CC(N2CCCN(CCN3C[C@H]4CC(=O)N(c5cc(C(F)(F)F)cc(C)n5)[C@@H]4C(=O)N(C)c4cccc(F)c43)CC2)C1 | 540000 |
| C=CC(=O)N1CC(N2CCN(CCN3C[C@H]4CC(=O)N(c5cc(C(F)(F)F)cc(C)n5)[C@@H]4C(=O)N(C)c4cccc(F)c43)CC2)C1 | 410000 |

a = C=C(CN(C)C)C(=O)Nc1ccc(CN2C[C@H]3CC(=O)N(c4cc(C(F)(F)F)cc(C)n4)[C@@H]3C(=O)N(C)c3cccc(C)c32)cc1OC
b = C=CC(=O)N1CC(c2nccc(CN3C[C@H]4CC(=O)N(c5cc(C(F)(F)F)cc(C)n5)[C@@H]4C(=O)N(C)c4cccc(F)c43)n2)C1
c = C=CC(=O)N1CC(N2CCC(CCN3C[C@H]4CC(=O)N(c5cc(C(F)(F)F)cc(C)n5)[C@@H]4C(=O)N(C)c4cccc(F)c43)CC2)C1
d = C=CC(=O)N1CCn2cc(CN3C[C@H]4CC(=O)N(c5cc(C(F)(F)F)cc(C)n5)[C@@H]4C(=O)N(C)c4cccc(Cl)c43)nc2C1C (single isomer, unassigned) [Example 142a]
[Q] Sort low-to-high on Kinact/Kl, please. I would appreciate it if you listed the labels in the requested order.
[A] b, a, c, d
(b: 400000 M⁻¹ s⁻¹, a: 630000 M⁻¹ s⁻¹, c: 1.21e+06 M⁻¹ s⁻¹, d: 1.75e+06 M⁻¹ s⁻¹)

====

target: Human Polθ polymerase domain (aa1820-2590) (Homo sapiens); construct: Human Polθ polymerase domain (aa1820-2590) was expressed in E. coli; made in house; host or cells: E. coli; assay: Polθ Polymerase Domain Kinact/KI Assay (PicoGreen); assay type: biochemical; conditions: 0.8 nM Polθ, 100 nM DNA substrate, kobs vs [I] fit for 2-step covalent inhibitor
attribute_measured: Kinact/Kl (M⁻¹ s⁻¹)

These recorded examples may help you get a feel for the data.
| compound | units_symbol | Kinact/Kl |
| --- | --- | --- |
| C#CC(=O)N1Cc2nc(CN3C[C@H]4CC(=O)N(c5cc(C(F)(F)F)cc(C)n5)[C@@H]4C(=O)N(C)c4cccc(Cl)c43)cn2C[C@@H]1C (racemic) [Example 172a] | M⁻¹ s⁻¹ | 900000 |
| C=CC(=O)N1CCn2c(nnc2CN2C[C@H]3CC(=O)N(c4cc(C(F)(F)F)cc(C)n4)[C@@H]3C(=O)N(C)c3cccc(F)c32)C1 [Example 134] | M⁻¹ s⁻¹ | 62000 |
| C=CC(=O)N1CCc2c(ncn2CCN2C[C@H]3CC(=O)N(c4cc(C(F)(F)F)cc(C)n4)[C@@H]3C(=O)N(C)c3cccc(F)c32)C1 [Example 49] | M⁻¹ s⁻¹ | 340000 |
| Cc1cc(C(F)(F)F)cc(N2C(=O)C[C@@H]3CN(Cc4cc(F)c(NC(=O)/C=C/CN(C)C)c(F)c4)c4c(Cl)cccc4N(C)C(=O)[C@H]32)n1 [Example 309] | M⁻¹ s⁻¹ | 1.02e+06 |

a = C=C(CN(C)C)C(=O)N1CC(OCCCN2C[C@H]3CC(=O)N(c4cc(C(F)(F)F)cc(C)n4)[C@@H]3C(=O)N(C)c3cccc(C)c32)C1 [Example 77]
b = C=CC(=O)N1CC2(CN(CCN3C[C@H]4CC(=O)N(c5cc(C(F)(F)F)cc(C)n5)[C@@H]4C(=O)N(C)c4cccc(F)c43)CCO2)C1 [Example 4]
[Q] Which shows the larger Kinact/Kl value: a or b ? Please identify the chosen entry by its label.
[A] a
